Where these numbers come from: patent US20100137313A1

# Test target: S. pneumoniae Topoisomerase IV ATPase (ParE) (Streptococcus pneumoniae serotype 4, UniProt Q59961)
# Sequence (Q59961 whole entry): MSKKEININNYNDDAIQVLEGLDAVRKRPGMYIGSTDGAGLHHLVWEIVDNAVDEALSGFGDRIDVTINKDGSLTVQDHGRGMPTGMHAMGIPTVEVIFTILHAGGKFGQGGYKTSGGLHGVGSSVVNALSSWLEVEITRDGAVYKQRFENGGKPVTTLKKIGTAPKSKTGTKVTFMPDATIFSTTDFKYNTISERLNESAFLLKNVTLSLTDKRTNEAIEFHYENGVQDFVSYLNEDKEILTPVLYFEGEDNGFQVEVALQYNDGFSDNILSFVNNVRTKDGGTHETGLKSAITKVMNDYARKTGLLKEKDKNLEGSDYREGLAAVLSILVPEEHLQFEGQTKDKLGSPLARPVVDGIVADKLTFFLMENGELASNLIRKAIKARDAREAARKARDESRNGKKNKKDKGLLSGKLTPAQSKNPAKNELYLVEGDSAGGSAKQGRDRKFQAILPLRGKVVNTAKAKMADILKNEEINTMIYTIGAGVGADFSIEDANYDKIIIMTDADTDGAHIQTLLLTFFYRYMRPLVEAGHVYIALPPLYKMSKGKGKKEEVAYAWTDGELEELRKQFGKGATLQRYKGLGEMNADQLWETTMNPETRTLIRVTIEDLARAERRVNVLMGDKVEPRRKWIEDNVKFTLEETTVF
# Procedure text: S. pneumoniae Topoisomerase IV ATPase inhibition
# Format: biochemical
# Assay conditions: values marked * are an average of two or more data points, read-out: % Inh (13 μM) of S. pneumoniae Topoisomerase IV ATPase
Assay metric: inhibition at 13 µM
Remember to put the unit after the number in your answer.

NC(=O)c1cncc(-c2cnc(Nc3ccc(F)c(Cl)c3)nc2-n2ccc(-c3ccsc3)n2)c1 = 100%
COc1cc(Nc2ncc(-c3cccc(/C=C/C(=O)O)c3)c(N3CCOCC3)n2)ccc1F = 76%
Cc1cccc(Nc2ncc(-c3cccc(/C=C/C(=O)O)c3)c(-n3ccc(C(F)(F)F)n3)n2)c1 = 100%

# ---- query compound ----
Task item: If you can, please state the reported inhibition at 13 µM value of CN(C)CCCNc1nc(Nc2ccc(F)c(Cl)c2)ncc1-c1cncc(-c2nnn[nH]2)c1 .
Reply: 91%
